Target: ERα-LBD (estrogen receptor, ER) (Homo sapiens, UniProt P03372)
Sequence (P03372 298-554): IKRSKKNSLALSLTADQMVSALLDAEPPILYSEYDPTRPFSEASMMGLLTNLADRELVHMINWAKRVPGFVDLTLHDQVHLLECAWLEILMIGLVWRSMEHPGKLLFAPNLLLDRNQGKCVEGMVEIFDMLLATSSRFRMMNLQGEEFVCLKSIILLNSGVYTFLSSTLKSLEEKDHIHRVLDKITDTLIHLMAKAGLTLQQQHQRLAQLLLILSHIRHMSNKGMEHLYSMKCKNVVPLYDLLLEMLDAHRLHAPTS
MEASUREMENT TYPE: Kd (nM)
Lab book: enter the figure in nM, no units written.

Given the molecule Cc1ncsc1-c1ccc(CNC(=O)[C@@H]2C[C@@H](O)CN2C(=O)[C@@H](NC(=O)CCCCCCCCCC(=O)NCCOc2ccc(C(=C(CCCl)c3ccccc3)c3ccc(O)cc3)cc2)C(C)(C)C)cc1 and test system ERα-LBD (estrogen receptor, ER) (Homo sapiens, UniProt P03372), the measured Kd is 2140

src = paper PMC9681730
